Listed here are molecules together with their documented log10(IC50).
target: Protein kinase C delta type (Homo sapiens, UniProt Q05655); assay: Inhibitory concentration against recombinant human Protein kinase C delta isozyme
Sequence (Q05655 whole entry): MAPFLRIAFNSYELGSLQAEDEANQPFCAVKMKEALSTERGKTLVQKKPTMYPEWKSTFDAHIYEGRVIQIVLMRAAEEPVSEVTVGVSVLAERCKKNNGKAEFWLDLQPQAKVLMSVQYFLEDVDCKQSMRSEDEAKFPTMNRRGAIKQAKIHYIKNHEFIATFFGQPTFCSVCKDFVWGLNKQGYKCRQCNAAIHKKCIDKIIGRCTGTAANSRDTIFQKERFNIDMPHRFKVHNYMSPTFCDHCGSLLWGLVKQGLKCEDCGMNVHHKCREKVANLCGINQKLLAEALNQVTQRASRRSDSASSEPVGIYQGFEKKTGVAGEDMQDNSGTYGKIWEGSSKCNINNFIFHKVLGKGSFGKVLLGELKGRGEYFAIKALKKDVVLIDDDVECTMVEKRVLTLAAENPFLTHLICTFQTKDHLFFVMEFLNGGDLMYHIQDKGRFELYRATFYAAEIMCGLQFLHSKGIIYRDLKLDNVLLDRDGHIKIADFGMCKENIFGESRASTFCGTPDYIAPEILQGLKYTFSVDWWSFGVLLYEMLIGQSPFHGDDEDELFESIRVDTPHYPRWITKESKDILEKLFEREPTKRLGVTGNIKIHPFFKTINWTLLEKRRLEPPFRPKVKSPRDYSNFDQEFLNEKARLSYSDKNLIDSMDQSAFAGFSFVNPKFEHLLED
Form field - Quantity: IC50; Unit: µM; Scale: log10

// below: answered molecules
[[record]]
molecule = "O=C(N[C@@H]1CN2CCC(CC2)[C@H]1OC(=O)c1cc(O)c(C(=O)c2c(O)cccc2C(=O)O)c(O)c1)c1ccc(O)cc1"
numeric_result = -0.96

[[record]]
molecule = "CNC(=O)N1C[C@@H](NC(=O)c2ccc(O)cc2)[C@H](OC(=O)c2cc(O)c(C(=O)c3c(O)cccc3C(=O)O)c(O)c2)C1"
numeric_result = -1.40

[[record]]
molecule = "O=C(N[C@H]1CNCCC[C@@H]1OC(=O)c1cc(O)c(C(=O)c2c(O)cccc2C(=O)O)c(O)c1)c1ccc(O)cc1"
numeric_result = -0.38

[[record]]
molecule = "O=C(N[C@@H]1COCCC[C@H]1OC(=O)c1cc(O)c(C(=O)c2c(O)cccc2C(=O)O)c(O)c1)c1ccc(O)cc1"
numeric_result = -1.05


Measured log10(IC50) of O=C(N[C@@H]1C[C@@H](CO)C[C@H]1OC(=O)c1cc(O)c(C(=O)c2c(O)cccc2C(=O)O)c(O)c1)c1ccc(O)cc1 : -1.70

Per the record, O=C(NC1CNCCCC1OC(=O)c1cc(O)c(C(=O)c2c(O)cccc2C(=O)O)c(O)c1)c1ccc(O)cc1 (racemic) has log10(IC50) of -1.70

// recorded log10(IC50) for N[C@@H]1C[C@@H](NC(=O)c2ccc(O)cc2)[C@H](OC(=O)c2cc(O)c(C(=O)c3c(O)cccc3C(=O)O)c(O)c2)C1 : -2.30

----------
target: UniProt P17252; experiment: Inhibitory concentration against recombinant human Protein kinase C alpha isozyme
MEASUREMENT_KIND: log10 IC50 (log10 of the value in nM)
Response schema: value (number) is log10 of IC50 in units of nM.

Some molecules with recorded log10 IC50:
[[record]]
molecule = "O=C(N[C@@H]1C[C@@H](O)C[C@H]1OC(=O)c1cc(O)c(C(=O)c2c(O)cccc2C(=O)O)c(O)c1)c1ccc(O)cc1"
numeric_result = 1.70

[[record]]
molecule = "N[C@@H]1C[C@@H](NC(=O)c2ccc(O)cc2)[C@H](OC(=O)c2cc(O)c(C(=O)c3c(O)cccc3C(=O)O)c(O)c2)C1"
numeric_result = 1.30

[[record]]
molecule = "O=C(N[C@H]1CNCCC[C@@H]1OC(=O)c1cc(O)c(C(=O)c2c(O)cccc2C(=O)O)c(O)c1)c1ccc(O)cc1"
numeric_result = 3.48

[[record]]
molecule = "O=C(N[C@@H]1CSCCC[C@H]1OC(=O)c1cc(O)c(C(=O)c2c(O)cccc2C(=O)O)c(O)c1)c1ccc(O)cc1"
numeric_result = 3.52

[[record]]
molecule = "COC(=O)N1C[C@@H](NC(=O)c2ccc(O)cc2)[C@H](OC(=O)c2cc(O)c(C(=O)c3c(O)cccc3C(=O)O)c(O)c2)C1"
numeric_result = 2.73


In plain terms, O=C(N[C@@H]1C2CCC(C2)[C@H]1OC(=O)c1cc(O)c(C(=O)c2c(O)cccc2C(=O)O)c(O)c1)c1ccc(O)cc1 (stereo partly specified) has a documented log10 IC50 of 1.78
